Provenance of the data: patent US20240209076A1

Target: T1, recombinant human IL-6 (human, UniProt P05231 30-212)
T1 construct: Flowed in solution over the captured antibodies
T1 sequence (P05231 30-212 limits assumed): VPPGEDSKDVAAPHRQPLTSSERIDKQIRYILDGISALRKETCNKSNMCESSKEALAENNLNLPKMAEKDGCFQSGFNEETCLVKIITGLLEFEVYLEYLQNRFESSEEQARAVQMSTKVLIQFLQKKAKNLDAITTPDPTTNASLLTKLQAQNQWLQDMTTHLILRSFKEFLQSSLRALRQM
Method description: SPR (Biacore), supernatant IgG on Protein A, 25 C

Binder: anti-IL-6 antibody, heavy chain T65G, light chain WT (antibody, IgG1, V domains shown, Full IgG1 tested; V domains derived as in m2) VH: EVQLVESGGGLVQPGGSLRLSCAASGFTFSPFAMSWVRQAPGKGLEWVAKISPGGSWTYYSDTVGGRFTFSLDTSKSTAYLQMNSLRAEDTAVYYCARQLWGYYALDIWGQGTLVTVSS VL: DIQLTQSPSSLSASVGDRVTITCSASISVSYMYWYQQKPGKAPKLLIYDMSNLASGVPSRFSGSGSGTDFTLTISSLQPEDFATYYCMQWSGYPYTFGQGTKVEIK
kon / M⁻¹ s⁻¹: 597000
//
Binder: anti-IL-6 antibody, heavy chain W57F, light chain WT (antibody, IgG1, V domains shown, Full IgG1 tested; V domains derived as in m2) VH: EVQLVESGGGLVQPGGSLRLSCAASGFTFSPFAMSWVRQAPGKGLEWVAKISPGGSFTYYSDTVTGRFTFSLDTSKSTAYLQMNSLRAEDTAVYYCARQLWGYYALDIWGQGTLVTVSS VL: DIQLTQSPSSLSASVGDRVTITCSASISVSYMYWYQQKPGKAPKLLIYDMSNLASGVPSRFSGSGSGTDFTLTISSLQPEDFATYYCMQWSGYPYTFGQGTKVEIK
kon / M⁻¹ s⁻¹: 577000
//
Binder: anti-IL-6 antibody, heavy chain S35Q, light chain WT (antibody, IgG1, V domains shown, Full IgG1 tested; V domains derived as in m2) VH: EVQLVESGGGLVQPGGSLRLSCAASGFTFSPFAMQWVRQAPGKGLEWVAKISPGGSWTYYSDTVTGRFTFSLDTSKSTAYLQMNSLRAEDTAVYYCARQLWGYYALDIWGQGTLVTVSS VL: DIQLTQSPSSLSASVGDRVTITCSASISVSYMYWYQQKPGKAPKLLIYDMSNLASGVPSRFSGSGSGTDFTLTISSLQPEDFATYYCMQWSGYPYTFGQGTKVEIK
kon / M⁻¹ s⁻¹: 375000
